From: patent US20230145868A1

test.details: Microsomal stability assay, mouse
Format: in vitro ADME
condition.label: mouse, liver microsomes, pH 7.4, mouse liver microsomes; 1 μM test compound; unit printed in b356 only
Method: The liver microsomal incubation mixture was composed of liver microsomes (with a concentration of 0.5 mg microsomal protein/ml), the test compound (1 μM), MgCl2 (3 mM), EDTA (1 mM) in potassium phosphate buffer (100 mM, pH 7.4). Control substrates used were Midazolam and Ketanserin. The reaction was initiated with the addition of an NADPH regeneration solution (1.3 mM NADPH) and maintained at 37° C. with shaking. […] The in vitro t1/2 was then calculated and clearance followed literature.
Measured CLint scaled at 1 μM values are reported for all entries that follow.
The reply should be a number in L/h/kg, with the unit left off.

Task: Which CLint scaled at 1 μM is listed for Cc1ccc(F)c(NC(=O)Nc2ccc(-c3cccc4[nH]nc(N)c34)cc2)c1 [Example 10, reference compound] ?
Output: 5.19

***
Task: Which CLint scaled at 1 μM is listed for Cc1ccc(F)c(NC(=O)Nc2ccc(-c3cccc4cn[nH]c34)cc2)c1 ?
Output: 3.48

###

test.details: Microsomal stability assay, mouse
Assay type: in vitro ADME
condition.label: mouse, liver microsomes, pH 7.4, mouse liver microsomes; 1 μM test compound; unit printed in b356 only
Description: The liver microsomal incubation mixture was composed of liver microsomes (with a concentration of 0.5 mg microsomal protein/ml), the test compound (1 μM), MgCl2 (3 mM), EDTA (1 mM) in potassium phosphate buffer (100 mM, pH 7.4). Control substrates used were Midazolam and Ketanserin. The reaction was initiated with the addition of an NADPH regeneration solution (1.3 mM NADPH) and maintained at 37° C. with shaking. […] The in vitro t1/2 was then calculated and clearance followed literature.
Measured half-life at 1 μM values are reported for all entries that follow.
The reply should be a number in min, with the unit left off.

Task: Which half-life at 1 μM is listed for Cc1ccc(F)c(NC(=O)Nc2ccc(-c3cccc4cn[nH]c34)cc2)c1 [Example 4] ?
Output: 92

Now consider the entry below.
Task: Which half-life at 1 μM is listed for Cc1ccc(F)c(NC(=O)Nc2ccc(-c3cccc4[nH]nc(N)c34)cc2)c1 [Example 10, reference compound] ?
Output: 63.1

###

Tested on: miR-10b
test.details: Luciferase reporter assay of miR-10b inhibition, MCF7 cells
Type: cell-based
condition.label: Homo sapiens, MCF7, 48 h, Table 3, MCF7, 10 μM compound, vs negative control (DMSO), mean of triplicate, read-out: n-fold increase in luciferase expression, Mean
Measured fold induction at 10 µM values are reported for all entries that follow.
The answer should be a number; do not append a unit.

Solved entries (count: 3):
Task: Which fold induction at 10 µM is listed for Cc1ccc(F)c(NC(=O)Nc2ccc(-c3cnc(N)nc3)cc2)c1 ?
Output: 2.86

Task: Which fold induction at 10 µM is listed for Cc1ccc(F)c(NC(=O)Nc2ccc(-c3cccc4[nH]ncc34)cc2)c1 ?
Output: 0.26

Task: Which fold induction at 10 µM is listed for Cc1ccc(F)c(NC(=O)Nc2ccc(-c3cncnc3)cc2)c1 ?
Output: 2.19

***
Task: Which fold induction at 10 µM is listed for Cc1ccc(F)c(NC(=O)Nc2ccc(-c3cccc4[nH]nc(N)c34)cc2)c1 [Example 10, reference compound] ?
Output: 2.5

###

test.details: Microsomal stability assay, rat
Format: in vitro ADME
condition.label: rat, liver microsomes, pH 7.4, rat liver microsomes; 1 μM test compound; unit printed in b356 only
Protocol: The liver microsomal incubation mixture was composed of liver microsomes (with a concentration of 0.5 mg microsomal protein/ml), the test compound (1 μM), MgCl2 (3 mM), EDTA (1 mM) in potassium phosphate buffer (100 mM, pH 7.4). Control substrates used were Midazolam and Ketanserin. The reaction was initiated with the addition of an NADPH regeneration solution (1.3 mM NADPH) and maintained at 37° C. with shaking. […] The in vitro t1/2 was then calculated and clearance followed literature.
Measured CLint scaled at 1 μM values are reported for all entries that follow.
The reply should be a number in mL/min/kg, with the unit left off.

Task: Which CLint scaled at 1 μM is listed for Cc1ccc(F)c(NC(=O)Nc2ccc(-c3cccc4cn[nH]c34)cc2)c1 ?
Output: 41

***
Task: Which CLint scaled at 1 μM is listed for Cc1ccc(F)c(NC(=O)Nc2ccc(-c3cccc4[nH]nc(N)c34)cc2)c1 [Example 10, reference compound] ?
Output: 20.4

###

Test system: miR-10b
test.details: Luciferase reporter assay of miR-10b inhibition, MDA-MB-231 cells
Format: cell-based
condition.label: Homo sapiens, MDA-MB-231, 48 h, Table 7, MDA-MB-231, second biological replicant, 10 μM compound, replicate #1, read-out: n-fold increase in luciferase expression, #1
reported.property: fold induction at 10 µM

Solved entries (count: 3):
Task: Which fold induction at 10 µM is listed for Cc1ccc(F)c(NC(=O)Nc2ccc(-c3cccc4[nH]nc(N)c34)cc2)c1 [Example 10, reference compound] ?
Output: 2.99

Task: Which fold induction at 10 µM is listed for Cc1ccc(F)c(NC(=O)Nc2ccc(-c3cnc(N)nc3)cc2)c1 [Example 5] ?
Output: 0.26

Task: Which fold induction at 10 µM is listed for Cc1ccc(F)c(NC(=O)Nc2ccc(-c3cccc4cn[nH]c34)cc2)c1 [Example 4] ?
Output: 1.81

***
Task: Which fold induction at 10 µM is listed for Nc1n[nH]c2cccc(-c3ccc(NC(=O)Nc4ccncc4)cc3)c12 [Example 9] ?
Output: 1.39

Task: Which fold induction at 10 µM is listed for Cc1ccc(F)c(NC(=O)Nc2ccc(-c3ccccn3)cc2)c1 [Example 8] ?
Output: 1.39

Task: Which fold induction at 10 µM is listed for Cc1ccc(F)c(NC(=O)Nc2ccc(-c3cncnc3)cc2)c1 [Example 2] ?
Output: 2.38

Task: Which fold induction at 10 µM is listed for Cc1ccc(F)c(NC(=O)Nc2ccc(-c3cccc4[nH]ncc34)cc2)c1 [Example 3] ?
Output: 0.193

Task: Which fold induction at 10 µM is listed for Cc1ccc(F)c(NC(=O)Nc2ccc(-c3cccc4c3NC(=O)C4)cc2)c1 [Example 7] ?
Output: 1.16
